# Test system: Staphylococcus aureus
# experimental-details: Antimicrobial activity against Staphylococcus aureus ATCC 25923 assessed as reduction in microbial growth by CLSI based broth microdilution method
# Type: functional
quantity: MIC (mg/L)
Note: unit mg/L is implicit; provide only the numeric part.

Sample records with MIC:
# substance-smiles, MIC / mg/L
measured = [
    ("CC(C)=CCC/C(C)=C/C=O", 1020),
    ("CC(C)c1ccc(C=O)cc1", 8190),
]

For the next question, use this compound.
Prompt: Given the entry `Cc1ccc(C(C)C)c(O)c1` , report its measured MIC.
Response: 256

###

# Test system: Escherichia coli
# experimental-details: Antimicrobial activity against Escherichia coli K88 assessed as reduction in microbial growth by CLSI based broth microdilution method
# Assay type: functional
quantity: log10(MIC) (log10 of the value in µg/mL)
Log scale reminder: MIC in µg/mL, then log10 taken.

# molecule, log10(MIC)
rows = [
    ("C=C(C)C1CC=C(C=O)CC1 (configuration not stated) [PERILLALDEHYDE]", 3.91),
    ("CC(C)c1ccc(C=O)cc1 [CUMINALDEHYDE]", 4.21),
    ("CC(C)=CCC/C(C)=C/C=O [CITRAL]", 4.21),
]

Prompt: Given the entry `CC[C@H](C)[C@H](NC(=O)[C@@H](NC(=O)[C@@H](CCCNC(=N)N)NC(=O)[C@H](C)NC(=O)[C@H](C)NC(=O)[C@@H](N)Cc1cccc2ccccc12)[C@@H](C)CC)C(=O)N[C@@H](CC(C)C)C(=O)N[C@H](CCCNC(=N)N)C(=O)N[C@@H](Cc1c[nH]c2ccccc12)C(=O)N[C@H](CCCNC(=N)N)C(=O)N[C@@H](Cc1ccccc1)C(=O)N[C@@H](CCCNC(=N)N)C(=O)O` , report its measured log10(MIC).
Response: 0.60

Prompt: Given the entry Cc1ccc(C(C)C)c(O)c1 [THYMOL] , report its measured log10(MIC).
Response: 2.11

Prompt: Given the entry CC(C)=CCCC(C)CC=O (configuration not stated) , report its measured log10(MIC).
Response: 4.52

Prompt: Given the entry Cc1ccc(C(C)C)cc1O [CARVACROL] , report its measured log10(MIC).
Response: 2.41

Hey, just so you know, these numbers are from ChEMBL document CHEMBL6087462.
